Kindly state relative viability for each of the entries shown.
# Tested on: NCI-H2126
# protocol text: relative viability (nuclei count vs DMSO), 5 days (fraction); higher = more cells survive
# reported conditions: first compound 0.001 µM
Numbers only.

Observe how each entry below is paired with its result.
Cc1cn(-c2cc(NC(=O)c3ccc(C)c(Nc4nccc(-c5cccnc5)n4)c3)cc(C(F)(F)F)c2)cn1 [Nilotinib] + C[C@@H](Oc1cc(-c2cnn(C3CCNCC3)c2)cnc1N)c1c(Cl)ccc(F)c1Cl [Crizotinib] (partner 1 µM): 1.02
Cc1cn(-c2cc(NC(=O)c3ccc(C)c(Nc4nccc(-c5cccnc5)n4)c3)cc(C(F)(F)F)c2)cn1 [Nilotinib] + Cc1nc(NC(=O)N2CCC[C@H]2C(N)=O)sc1-c1ccnc(C(C)(C)C(F)(F)F)c1 [Alpelisib] (partner 2 µM): 0.732
Cc1cn(-c2cc(NC(=O)c3ccc(C)c(Nc4nccc(-c5cccnc5)n4)c3)cc(C(F)(F)F)c2)cn1 [Nilotinib] + C[C@]1(O)C[C@@H](c2nc(-c3ccc4ccc(-c5ccccc5)nc4c3)c3c(N)nccn32)C1 [Linsitinib] (partner 1 µM): 0.684
Cc1cn(-c2cc(NC(=O)c3ccc(C)c(Nc4nccc(-c5cccnc5)n4)c3)cc(C(F)(F)F)c2)cn1 [Nilotinib] + CC(=O)Nc1cccc(-n2c(=O)n(C3CC3)c(=O)c3c(Nc4ccc(I)cc4F)n(C)c(=O)c(C)c32)c1 [Trametinib] (partner 0.02 µM): 0.521
Cc1cn(-c2cc(NC(=O)c3ccc(C)c(Nc4nccc(-c5cccnc5)n4)c3)cc(C(F)(F)F)c2)cn1 [Nilotinib] + CCNC(=O)c1noc(-c2cc(C(C)C)c(O)cc2O)c1-c1ccc(CN2CCOCC2)cc1 [Luminespib] (partner 0.01 µM): 0.832

Then this compound:
// sample Cc1cn(-c2cc(NC(=O)c3ccc(C)c(Nc4nccc(-c5cccnc5)n4)c3)cc(C(F)(F)F)c2)cn1 [Nilotinib] + COc1cccc2cc(-c3nc([C@H]4CC[C@H](C(=O)O)CC4)n4ncnc(N)c34)[nH]c12 [OSI-027] (partner 0.5 µM) , its relative viability was 0.673

* * *

# Test system: NCI-H322M
# protocol text: relative viability (nuclei count vs DMSO), 5 days (fraction); higher = more cells survive
# reported conditions: first compound 0.02 µM
Binarize relative viability at 0.6; below is True, at or above is False.

Worked examples, 4 compounds total:
CCNC(=O)c1noc(-c2cc(C(C)C)c(O)cc2O)c1-c1ccc(CN2CCOCC2)cc1 [Luminespib] + N=C(N)NC(=N)NCCc1ccccc1 [Phenformin] (partner 250 µM): False
CN1CCN(CCOc2cc(OC3CCOCC3)c3c(Nc4c(Cl)ccc5c4OCO5)ncnc3c2)CC1 [Saracatinib] + C[C@]1(O)C[C@@H](c2nc(-c3ccc4ccc(-c5ccccc5)nc4c3)c3c(N)nccn32)C1 [Linsitinib] (partner 1 µM): False
CCNC(=O)c1noc(-c2cc(C(C)C)c(O)cc2O)c1-c1ccc(CN2CCOCC2)cc1 [Luminespib] + CC1(C)CCC(c2ccc(Cl)cc2)=C(CN2CCN(c3ccc(C(=O)NS(=O)(=O)c4ccc(N[C@H](CCN5CCOCC5)CSc5ccccc5)c(S(=O)(=O)C(F)(F)F)c4)cc3)CC2)C1 [Navitoclax] (partner 0.5 µM): False
CN1CCN(CCOc2cc(OC3CCOCC3)c3c(Nc4c(Cl)ccc5c4OCO5)ncnc3c2)CC1 [Saracatinib] + N=C(N)NC(=N)NCCc1ccccc1 [Phenformin] (partner 250 µM): False

(Q) # check: relative viability < 0.6 for CN1CCN(CCOc2cc(OC3CCOCC3)c3c(Nc4c(Cl)ccc5c4OCO5)ncnc3c2)CC1 [Saracatinib] + Cc1cc(Nc2cc(N3CCN(C)CC3)nc(Sc3ccc(NC(=O)C4CC4)cc3)n2)n[nH]1 [Tozasertib] (partner 0.1 µM)
(A) True

(Q) # check: relative viability < 0.6 for CN1CCN(CCOc2cc(OC3CCOCC3)c3c(Nc4c(Cl)ccc5c4OCO5)ncnc3c2)CC1 [Saracatinib] + Cc1nc(Nc2ncc(C(=O)Nc3c(C)cccc3Cl)s2)cc(N2CCN(CCO)CC2)n1 [Dasatinib] (partner 0.075 µM)
(A) True

(Q) # check: relative viability < 0.6 for CN1CCN(CCOc2cc(OC3CCOCC3)c3c(Nc4c(Cl)ccc5c4OCO5)ncnc3c2)CC1 [Saracatinib] + CC1(C)CCC(c2ccc(Cl)cc2)=C(CN2CCN(c3ccc(C(=O)NS(=O)(=O)c4ccc(N[C@H](CCN5CCOCC5)CSc5ccccc5)c(S(=O)(=O)C(F)(F)F)c4)cc3)CC2)C1 [Navitoclax] (partner 0.5 µM)
(A) False

(Q) # check: relative viability < 0.6 for CCNC(=O)c1noc(-c2cc(C(C)C)c(O)cc2O)c1-c1ccc(CN2CCOCC2)cc1 [Luminespib] + CC(C)C[C@H](NC(=O)[C@H](Cc1ccccc1)NC(=O)c1cnccn1)B(O)O [Bortezomib] (partner 0.002 µM)
(A) False

(Q) # check: relative viability < 0.6 for CN1CCN(CCOc2cc(OC3CCOCC3)c3c(Nc4c(Cl)ccc5c4OCO5)ncnc3c2)CC1 [Saracatinib] + CC(=O)c1c(C)c2cnc(Nc3ccc(N4CCNCC4)cn3)nc2n(C2CCCC2)c1=O [Palbociclib] (partner 0.5 µM)
(A) True

(Q) # check: relative viability < 0.6 for CCNC(=O)c1noc(-c2cc(C(C)C)c(O)cc2O)c1-c1ccc(CN2CCOCC2)cc1 [Luminespib] + O=C(CCCCCCC(=O)Nc1ccccc1)NO [Vorinostat] (partner 1 µM)
(A) False

(Q) # check: relative viability < 0.6 for CCNC(=O)c1noc(-c2cc(C(C)C)c(O)cc2O)c1-c1ccc(CN2CCOCC2)cc1 [Luminespib] + CC(=O)c1c(C)c2cnc(Nc3ccc(N4CCNCC4)cn3)nc2n(C2CCCC2)c1=O [Palbociclib] (partner 0.5 µM)
(A) True

* * *

# System: RERF-LC-KJ
# protocol text: relative viability (nuclei count vs DMSO), 5 days (fraction); higher = more cells survive
# reported conditions: first compound 0.03162 µM
Kindly state relative viability for each of the entries shown.
Answers are plain numbers.

Consider the following items and state reported relative viability for each.
1. Cc1cn(-c2cc(NC(=O)c3ccc(C)c(Nc4nccc(-c5cccnc5)n4)c3)cc(C(F)(F)F)c2)cn1 [Nilotinib] + CC(=O)c1c(C)c2cnc(Nc3ccc(N4CCNCC4)cn3)nc2n(C2CCCC2)c1=O [Palbociclib] (partner 0.5 µM)
2. Cc1cn(-c2cc(NC(=O)c3ccc(C)c(Nc4nccc(-c5cccnc5)n4)c3)cc(C(F)(F)F)c2)cn1 [Nilotinib] + CS(=O)(=O)CCNCc1ccc(-c2ccc3ncnc(Nc4ccc(OCc5cccc(F)c5)c(Cl)c4)c3c2)o1 [Lapatinib] (partner 2 µM)
3. Cc1cn(-c2cc(NC(=O)c3ccc(C)c(Nc4nccc(-c5cccnc5)n4)c3)cc(C(F)(F)F)c2)cn1 [Nilotinib] + Nc1nc2[nH]cc(CCc3ccc(C(=O)N[C@@H](CCC(=O)O)C(=O)O)cc3)c2c(=O)[nH]1 [Pemetrexed] (partner 0.2 µM)

(A)
1: 0.896; 2: 0.882; 3: 0.422

* * *

Kindly state relative viability for each of the entries shown.
# System: EPLC-272H
# protocol text: relative viability (nuclei count vs DMSO), 5 days (fraction); higher = more cells survive
# reported conditions: first compound 0.2 µM
Numbers only.

Observe how each entry below is paired with its result.
CN1CCN(CCOc2cc(OC3CCOCC3)c3c(Nc4c(Cl)ccc5c4OCO5)ncnc3c2)CC1 [Saracatinib] + CC(=O)c1c(C)c2cnc(Nc3ccc(N4CCNCC4)cn3)nc2n(C2CCCC2)c1=O [Palbociclib] (partner 0.5 µM): 0.287
CCNC(=O)c1noc(-c2cc(C(C)C)c(O)cc2O)c1-c1ccc(CN2CCOCC2)cc1 [Luminespib] + COc1cc2c(Oc3ccc(NC(=O)C4(C(=O)Nc5ccc(F)cc5)CC4)cc3F)ccnc2cc1OCCCN1CCOCC1 [Foretinib] (partner 0.25 µM): 0.0989
Cc1csc(=NC2CCCCC2)n1/N=C/c1ccc(O)c(O)c1O [MIM1] + C[C@@H](Oc1cc(-c2cnn(C3CCNCC3)c2)cnc1N)c1c(Cl)ccc(F)c1Cl [Crizotinib] (partner 1 µM): 0.911
CCNC(=O)c1noc(-c2cc(C(C)C)c(O)cc2O)c1-c1ccc(CN2CCOCC2)cc1 [Luminespib] + O=C(c1cc(Cc2n[nH]c(=O)c3ccccc23)ccc1F)N1CCN(C(=O)C2CC2)CC1 [Olaparib] (partner 8 µM): 0.082

Then this compound:
// sample CN1CCN(CCOc2cc(OC3CCOCC3)c3c(Nc4c(Cl)ccc5c4OCO5)ncnc3c2)CC1 [Saracatinib] + C[C@]1(O)C[C@@H](c2nc(-c3ccc4ccc(-c5ccccc5)nc4c3)c3c(N)nccn32)C1 [Linsitinib] (partner 1 µM) , its relative viability was 1.28

* * *

Kindly state relative viability for each of the entries shown.
# System: LXF-289
# protocol text: relative viability (nuclei count vs DMSO), 5 days (fraction); higher = more cells survive
# reported conditions: first compound 0.2 µM
One number for each entry.

Observe how each entry below is paired with its result.
CCNC(=O)c1noc(-c2cc(C(C)C)c(O)cc2O)c1-c1ccc(CN2CCOCC2)cc1 [Luminespib] + COc1cccc2cc(-c3nc([C@H]4CC[C@H](C(=O)O)CC4)n4ncnc(N)c34)[nH]c12 [OSI-027] (partner 0.5 µM): 0.0755
Cc1csc(=NC2CCCCC2)n1/N=C/c1ccc(O)c(O)c1O [MIM1] + Nc1ncn([C@H]2C[C@H](O)[C@@H](CO)O2)c(=O)n1 [Decitabine] (partner 2 µM): 0.399

Consider the following items and state reported relative viability for each.
1. Cc1csc(=NC2CCCCC2)n1/N=C/c1ccc(O)c(O)c1O [MIM1] + N=C(N)NC(=N)NCCc1ccccc1 [Phenformin] (partner 250 µM)
2. CCNC(=O)c1noc(-c2cc(C(C)C)c(O)cc2O)c1-c1ccc(CN2CCOCC2)cc1 [Luminespib] + Cc1nc(Nc2ncc(C(=O)Nc3c(C)cccc3Cl)s2)cc(N2CCN(CCO)CC2)n1 [Dasatinib] (partner 0.075 µM)
3. CCNC(=O)c1noc(-c2cc(C(C)C)c(O)cc2O)c1-c1ccc(CN2CCOCC2)cc1 [Luminespib] + CC(C)C[C@H](NC(=O)[C@H](Cc1ccccc1)NC(=O)c1cnccn1)B(O)O [Bortezomib] (partner 0.002 µM)
4. Cc1csc(=NC2CCCCC2)n1/N=C/c1ccc(O)c(O)c1O [MIM1] + Cc1cc(Nc2cc(N3CCN(C)CC3)nc(Sc3ccc(NC(=O)C4CC4)cc3)n2)n[nH]1 [Tozasertib] (partner 0.1 µM)
5. CCNC(=O)c1noc(-c2cc(C(C)C)c(O)cc2O)c1-c1ccc(CN2CCOCC2)cc1 [Luminespib] + O=C(c1cc(Cc2n[nH]c(=O)c3ccccc23)ccc1F)N1CCN(C(=O)C2CC2)CC1 [Olaparib] (partner 8 µM)
6. CN1CCN(CCOc2cc(OC3CCOCC3)c3c(Nc4c(Cl)ccc5c4OCO5)ncnc3c2)CC1 [Saracatinib] + CC1(C)CCC(c2ccc(Cl)cc2)=C(CN2CCN(c3ccc(C(=O)NS(=O)(=O)c4ccc(N[C@H](CCN5CCOCC5)CSc5ccccc5)c(S(=O)(=O)C(F)(F)F)c4)cc3)CC2)C1 [Navitoclax] (partner 0.5 µM)
7. Cc1csc(=NC2CCCCC2)n1/N=C/c1ccc(O)c(O)c1O [MIM1] + O=C(CCCCCCC(=O)Nc1ccccc1)NO [Vorinostat] (partner 1 µM)
8. Cc1csc(=NC2CCCCC2)n1/N=C/c1ccc(O)c(O)c1O [MIM1] + CC1(C)CCC(c2ccc(Cl)cc2)=C(CN2CCN(c3ccc(C(=O)NS(=O)(=O)c4ccc(N[C@H](CCN5CCOCC5)CSc5ccccc5)c(S(=O)(=O)C(F)(F)F)c4)cc3)CC2)C1 [Navitoclax] (partner 0.5 µM)

(A)
[0.517, 0.0395, 0.105, 0.167, 0.805, 0.846, 0.777, 0.921]

Consider the following items and state reported relative viability for each.
1. Cc1csc(=NC2CCCCC2)n1/N=C/c1ccc(O)c(O)c1O [MIM1] + O=C(c1cc(Cc2n[nH]c(=O)c3ccccc23)ccc1F)N1CCN(C(=O)C2CC2)CC1 [Olaparib] (partner 8 µM)
2. CN1CCN(CCOc2cc(OC3CCOCC3)c3c(Nc4c(Cl)ccc5c4OCO5)ncnc3c2)CC1 [Saracatinib] + Nc1nc2[nH]cc(CCc3ccc(C(=O)N[C@@H](CCC(=O)O)C(=O)O)cc3)c2c(=O)[nH]1 [Pemetrexed] (partner 0.2 µM)

(A)
1. 1.04
2. 0.902

meta.source: the supplement of paper PMC10307832
